- Assay text: Pharmacokinetic (PK) studies, in vivo monkey oral PK
- Design: species or system Cynomolgus monkeys
- Condition description: Cynomolgus monkey, single oral dose 2 mg/kg, plasma; read-out: AUC0-24 (Arbitrary units)
Output label 1 for records whose AUC(0-t) is lower than 6 µM·h, label 0 for records at or above 6 µM·h.

Answered cases to consult:
>>> assigned_label("CC1(C)COC[C@H]1n1c(Cc2cc(F)c(-c3cccc(OCc4ccc(C#N)cc4)n3)cc2F)nc2ccc(C(=O)O)cc21 [Example 119]")
"label 0"
>>> assigned_label("CC1(C)COC[C@H]1n1c(Cc2cc(F)c(-c3ccnc(OCc4ccc(Cl)cc4F)n3)cc2F)nc2c(F)cc(C(=O)O)cc21 [Example 117]")
"label 0"
>>> assigned_label("CC1(C)COC[C@H]1n1c(Cc2cc(F)c(-c3cccc(OCc4ccc(Cl)cc4F)n3)cc2F)nc2ccc(C(=O)O)cc21 [Example 115]")
"label 0"
>>> assigned_label("N#Cc1ccc(COc2cccc(-c3cc(F)c(Cc4nc5ccc(C(=O)O)cc5n4C[C@@H]4CCO4)cc3F)n2)c(F)c1 [CE-2, reference compound]")
"label 1"

Input CC1(C)COC[C@H]1n1c(Cc2cc(F)c(-c3cccc(OCc4ccc(C#N)cc4F)n3)cc2F)nc2ccc(C(=O)O)cc21 [Example 60] ; condition: AUC(0-t) strictly below 6 µM·h. Does it hold? label 1
